Outcome Measure: pIC50
Scale: negative log10 of molar concentration, which is what pIC50 denotes.

Exam item: Return pIC50 measured with UniProt:Q9NXS2 given this compound: Cn1cnnc1C1CCN(c2c(C#N)cccc2-c2ccn(C)c(=O)c2)CC1
Marked response: 7.71

Exam item: Return pIC50 measured with UniProt:Q9NXS2 given this compound: Cn1cnnc1C1CCN(c2c(C#N)cccc2-c2ccc(N)nc2)CC1
Marked response: 6.33

Exam item: Return pIC50 measured with UniProt:Q9NXS2 given this compound: Cn1cnnc1C1CCN(c2c(C#N)cccc2-c2cnccc2Cl)CC1
Marked response: 6.98

Exam item: Return pIC50 measured with UniProt:Q9NXS2 given this compound: COc1ccc(-c2cccc(C#N)c2N2CCC(c3nncn3C)CC2)cn1
Marked response: 6.43

Exam item: Return pIC50 measured with UniProt:Q9NXS2 given this compound: Cn1cnnc1C1CCN(c2c(C#N)cccc2-c2cc[nH]c(=O)c2)CC1
Marked response: 7.75

Exam item: Return pIC50 measured with UniProt:Q9NXS2 given this compound: Cn1cnnc1C1CCN(c2c(C#N)cccc2-c2ccc(O)nc2)CC1
Marked response: 6.73

Exam item: Return pIC50 measured with UniProt:Q9NXS2 given this compound: Cn1cnnc1C1CCN(c2c(C#N)cccc2-c2cccnc2)CC1
Marked response: 7.25

---

Consider the following compounds; for each one, report its pIC50.
Scale: negative log10 of molar concentration, which is what pIC50 denotes.

Exam item: Return pIC50 measured with QPCTL (Homo sapiens, UniProt Q9NXS2) given this compound: CCCOc1ccc([C@H]2CNC(=O)N2c2ccc3[nH]cnc3c2)cc1 [PQ912, reference compound]
Sequence (Q9NXS2 whole entry): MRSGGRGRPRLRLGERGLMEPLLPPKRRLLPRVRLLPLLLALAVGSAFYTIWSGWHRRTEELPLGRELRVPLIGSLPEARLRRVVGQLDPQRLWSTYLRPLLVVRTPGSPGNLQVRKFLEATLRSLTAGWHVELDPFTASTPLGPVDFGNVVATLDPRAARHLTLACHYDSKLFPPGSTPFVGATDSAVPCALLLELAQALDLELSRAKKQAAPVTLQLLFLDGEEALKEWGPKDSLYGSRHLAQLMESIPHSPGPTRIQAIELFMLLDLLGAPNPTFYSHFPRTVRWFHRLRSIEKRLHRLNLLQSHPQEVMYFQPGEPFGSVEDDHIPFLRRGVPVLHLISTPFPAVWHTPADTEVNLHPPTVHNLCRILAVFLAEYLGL
Marked response: 7.29

Exam item: Return pIC50 measured with QPCTL (Homo sapiens, UniProt Q9NXS2) given this compound: Cn1cnnc1C1CCN(c2c(C#N)cccc2-c2cncc(C#N)c2)CC1 [Compound 15]
Marked response: 6.91

Exam item: Return pIC50 measured with QPCTL (Homo sapiens, UniProt Q9NXS2) given this compound: Cn1cnnc1C1CCN(c2c(C#N)cccc2-c2cncnc2)CC1 [Compound 9]
Marked response: 7.12

Exam item: Return pIC50 measured with QPCTL (Homo sapiens, UniProt Q9NXS2) given this compound: Cn1cnnc1C1CCN(c2c(C#N)cccc2-c2ccoc2)CC1 [Compound 24]
Marked response: 6.87

Exam item: Return pIC50 measured with QPCTL (Homo sapiens, UniProt Q9NXS2) given this compound: Cn1cnnc1C1CCN(c2c(C#N)cccc2-c2ccc(C#N)nc2)CC1 [Compound 11]
Marked response: 6.38

Exam item: Return pIC50 measured with QPCTL (Homo sapiens, UniProt Q9NXS2) given this compound: Cc1ccncc1-c1cccc(C#N)c1N1CCC(c2nncn2C)CC1 [Compound 18]
Marked response: 7.13

Exam item: Return pIC50 measured with QPCTL (Homo sapiens, UniProt Q9NXS2) given this compound: Cn1cnnc1C1CCN(c2c(C#N)cccc2-c2cnccc2C(F)(F)F)CC1 [Compound 17]
Marked response: 7.27

Exam item: Return pIC50 measured with QPCTL (Homo sapiens, UniProt Q9NXS2) given this compound: Cn1cnnc1C1CCN(c2c(C#N)cccc2-c2cncc(F)c2)CC1 [Compound 14]
Marked response: 7.13

Exam item: Return pIC50 measured with QPCTL (Homo sapiens, UniProt Q9NXS2) given this compound: Cn1cnnc1C1CCN(c2c(C#N)cccc2-c2ccc(=O)n(C)c2)CC1 [Compound 21]
Marked response: 6.24

Exam item: Return pIC50 measured with QPCTL (Homo sapiens, UniProt Q9NXS2) given this compound: Cc1nnc(C2CCN(c3c(C#N)cccc3-c3ccc(F)nc3)CC2)n1C [Compound 26]
Marked response: 7.03
